TESTED TARGET: PI3 Kinase α (Homo sapiens, UniProt P42336)
Sequence (P42336 whole entry): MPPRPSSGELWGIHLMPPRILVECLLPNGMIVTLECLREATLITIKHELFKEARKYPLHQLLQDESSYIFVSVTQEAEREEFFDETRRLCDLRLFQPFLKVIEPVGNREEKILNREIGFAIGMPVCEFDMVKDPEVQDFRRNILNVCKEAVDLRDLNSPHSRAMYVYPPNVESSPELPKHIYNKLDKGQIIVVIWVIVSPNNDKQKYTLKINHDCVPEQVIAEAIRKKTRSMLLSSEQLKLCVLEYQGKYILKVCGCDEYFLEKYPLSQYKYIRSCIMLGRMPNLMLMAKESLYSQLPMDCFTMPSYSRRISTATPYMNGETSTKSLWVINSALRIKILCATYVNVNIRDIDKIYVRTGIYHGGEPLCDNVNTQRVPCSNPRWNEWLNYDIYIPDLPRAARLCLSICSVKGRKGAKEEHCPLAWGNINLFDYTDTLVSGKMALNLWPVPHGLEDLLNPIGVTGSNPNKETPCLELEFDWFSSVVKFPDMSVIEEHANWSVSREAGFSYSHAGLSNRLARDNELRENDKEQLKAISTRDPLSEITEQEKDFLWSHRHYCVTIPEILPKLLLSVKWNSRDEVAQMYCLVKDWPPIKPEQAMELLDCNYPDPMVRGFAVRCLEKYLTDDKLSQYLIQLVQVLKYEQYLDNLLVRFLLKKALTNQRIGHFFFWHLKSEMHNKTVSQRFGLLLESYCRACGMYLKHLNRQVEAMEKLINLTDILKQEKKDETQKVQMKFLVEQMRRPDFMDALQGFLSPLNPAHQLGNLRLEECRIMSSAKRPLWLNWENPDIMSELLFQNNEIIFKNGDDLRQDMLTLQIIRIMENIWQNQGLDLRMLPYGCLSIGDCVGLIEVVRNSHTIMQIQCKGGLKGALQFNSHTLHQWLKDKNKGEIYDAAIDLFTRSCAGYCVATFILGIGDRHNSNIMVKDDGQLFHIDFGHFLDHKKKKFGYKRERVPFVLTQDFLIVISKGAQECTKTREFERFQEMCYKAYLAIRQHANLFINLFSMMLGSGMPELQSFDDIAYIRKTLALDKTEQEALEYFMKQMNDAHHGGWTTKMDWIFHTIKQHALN
Sequence (P27986 whole entry partner): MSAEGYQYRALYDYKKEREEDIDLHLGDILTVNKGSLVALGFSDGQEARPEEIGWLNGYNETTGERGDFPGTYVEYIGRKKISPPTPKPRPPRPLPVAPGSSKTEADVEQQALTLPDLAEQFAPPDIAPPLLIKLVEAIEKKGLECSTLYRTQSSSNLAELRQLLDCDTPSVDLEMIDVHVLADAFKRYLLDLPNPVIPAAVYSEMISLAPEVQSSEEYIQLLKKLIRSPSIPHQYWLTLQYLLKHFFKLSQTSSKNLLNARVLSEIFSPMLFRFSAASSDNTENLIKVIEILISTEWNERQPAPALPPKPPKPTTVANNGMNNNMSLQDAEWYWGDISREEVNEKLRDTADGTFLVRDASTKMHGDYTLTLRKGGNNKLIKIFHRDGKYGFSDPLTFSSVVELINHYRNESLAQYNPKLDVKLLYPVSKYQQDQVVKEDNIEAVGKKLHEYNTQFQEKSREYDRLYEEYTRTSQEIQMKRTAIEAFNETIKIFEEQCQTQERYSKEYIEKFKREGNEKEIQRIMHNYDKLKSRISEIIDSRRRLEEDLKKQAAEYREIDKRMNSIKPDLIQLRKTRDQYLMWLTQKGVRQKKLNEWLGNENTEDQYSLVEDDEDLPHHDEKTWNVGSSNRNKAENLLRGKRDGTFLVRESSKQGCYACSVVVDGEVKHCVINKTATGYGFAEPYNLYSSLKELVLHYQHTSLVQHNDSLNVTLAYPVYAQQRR
Would you kindly list IC50 for each of these molecules?
Returns: string containing the numeric result and its unit.

ITEM SMILES	IC50
CN(C)CCCOc1ccc(CN2CC(Cn3nnc4c(N5CCOCC5)nc(-c5ccc(NC(=O)Nc6ccccc6)cc5)nc43)C2)cc1	31 nM
Oc1cccc(-c2nc(N3CCOCC3)c3nnn(CCN4CCN(Cc5ccccc5)CC4)c3n2)c1	255 nM
O=C(Nc1ccccc1)Nc1ccc(-c2nc(N3CCOCC3)c3nnn(CC4CNC4)c3n2)cc1	8 nM
O=C(Nc1ccc(-c2nc(N3CCOCC3)c3nnn(C4CCNCC4)c3n2)cc1)Nc1cccnc1	13.5 nM

Could I get IC50 for every one of these entries?
1. O=C(Nc1ccccc1)Nc1ccc(-c2nc(N3CCOCC3)c3nnn(CC4CN(Cc5ccccc5)C4)c3n2)cc1
2. CCn1nnc2c(N3CCOC[C@@H]3C)nc(-c3ccc(NC(=O)Nc4ccc(C#N)cc4)cc3)nc21
3. OCc1cccc(-c2nc(N3CCOCC3)c3nnn(C4CCNCC4)c3n2)c1

1: 91 nM; 2: 13.5 nM; 3: 23.7 nM

###

# IC50 per entry for PI3 Kinase γ (Homo sapiens, UniProt P48736)
Numbers only, in nM.

ITEM SMILES	TESTED TARGET	VALUE UNITS	IC50
CCn1nnc2c(N3CCOCC3)nc(-c3ccc(NC(=O)Nc4ccc(C(=O)NCCc5ccccn5)cc4)cc3)nc21	PI3 Kinase γ (Homo sapiens, UniProt P48736)	nM	30
CN(C)CCNC(=O)Nc1ccc(-c2nc(N3CCOCC3)c3nnn(C4CCN(Cc5ccc(Br)nc5)CC4)c3n2)cc1	PI3 Kinase γ (Homo sapiens, UniProt P48736)	nM	176
CCn1nnc2c(N3CCOC[C@@H]3C)nc(-c3ccc(NC(=O)Nc4ccc(C(=O)N5CCC(N(C)C)CC5)cc4)cc3)nc21	PI3 Kinase γ (Homo sapiens, UniProt P48736)	nM	2.8
CNC(=O)Cn1nnc2c(N3CCOCC3)nc(-c3cccc(CO)c3)nc21	PI3 Kinase γ (Homo sapiens, UniProt P48736)	nM	1880
O=C(Nc1ccncc1)Nc1ccc(-c2nc(N3CCOCC3)c3nnn(CC(F)(F)F)c3n2)cc1	PI3 Kinase γ (Homo sapiens, UniProt P48736)	nM	25.5

Could I get IC50 for every one of these entries?
1. O=C(Nc1ccc(-c2nc(N3CCOCC3)c3nnn(CCO)c3n2)cc1)Nc1cccnc1
2. CCn1nnc2c(N3CCOCC3)nc(-c3ccc(NC(=O)Nc4ccc(C(N)=O)cc4)cc3)nc21

1: 47; 2: 16.5

###

# IC50 per entry for PI3 Kinase α (Homo sapiens)
One number for each entry, in µM.

Record excerpt, results attached:
COMPOUND	VALUE UNITS	NUMERIC RESULT
CCn1nnc2c(N3CCOCC3)nc(-c3ccc(NC(=O)Nc4ccncc4)cc3)nc21 [Example 33]	µM	0.003
O=C(c1ccc(F)c(F)c1)N1CCN(CCn2nnc3c(N4CCOCC4)nc(-c4cccc(O)c4)nc32)CC1 [Example 102]	µM	1.26
C[C@H](NC(=O)c1ccc(Cn2nnc3c(N4CCOCC4)nc(-c4cccc(O)c4)nc32)cc1)c1ccccc1 [Example 224]	µM	0.09
COC(Cn1nnc2c(N3CCOCC3)nc(-c3ccc(NC(=O)Nc4ccc(C(N)=O)cc4)cc3)nc21)OC [Example 182]	µM	0.004
Oc1cncc(-c2nc(N3CCOCC3)c3nnn(C4CCN(Cc5ccc(F)c(F)c5)CC4)c3n2)c1 [Example 18]	µM	0.075

Could I get IC50 for every one of these entries?
1. O=C(NCCc1c[nH]c2ccccc12)c1ccc(Cn2nnc3c(N4CCOCC4)nc(-c4cccc(O)c4)nc32)cc1 [Example 225]
2. CNC(=O)Nc1ccc(-c2nc(N3CCOCC3)c3nnn(C(C)C)c3n2)cc1 [Example 91]

0.043
0.0415
